system: Streptococcus pneumoniae; experiment: Antibacterial activity against Streptococcus pneumoniae S001 harboring parC Asp83Asn mutant and wild-type gyrA genes assessed as mutation prevention concentration after 48 hrs; format: functional
measure: Activity (µg/mL)
Expressed in µg/mL, but write only the number.

Examples from the recorded data:
Form: compound = "C[C@H]1NCc2cc(-c3ccc4c(=O)c(C(=O)O)cn(C5CC5)c4c3OC(F)F)ccc21" ; Activity = 1

For record COc1c(N2CCNC(C)C2)c(F)cc2c(=O)c(C(=O)O)cn(C3CC3)c12 (centres undefined) the listed Activity is 4

For "C[C@H]1COc2c(N3CCN(C)CC3)c(F)cc3c(=O)c(C(=O)O)cn1c23.C[C@H]1COc2c(N3CCN(C)CC3)c(F)cc3c(=O)c(C(=O)O)cn1c23.O" the compound record lists Activity as 16

Field: next compound
Entry "O=C(O)c1cn(C2CC2)c2cc(N3CCNCC3)c(F)cc2c1=O" ; Activity = 128

Ref: ChEMBL document CHEMBL1649531
